Field: IC50. Provide a value for each of the compounds that follow.
Tested on: HCT116 cells
Assay: Drug sensitivity assay, ATP production, 2D culture
Type: cell-based
Settings: Homo sapiens, HCT-116; HCT116, 2D culture, 72 h; read-out: IC50, ATP production (cell growth)
Quick note: unit goes after the number.

Note to self: IC50 recorded for O[C@H]1CC[C@@H](Oc2cccc3cnc(Nc4ccc5nc[nH]c5c4)nc23)CC1 [NCB-0846] was 360 nM

Next up:
Note to self: IC50 recorded for O[C@H]1CC[C@H](Oc2cccc3cnc(Nc4ccc5nc[nH]c5c4)nc23)CC1 [NCB-0970] was 2400 nM

----------
System: patient-derived colorectal cancer spheroids #6
Test: ATP production of patient-derived spheroid #6
Format: cell-based
Conditions: Homo sapiens, 72 h; spheroid #6, 3 days
test.readout: IC50 (nM)
Answers are plain numbers, in nM.

Note to self: IC50 recorded for `O[C@H]1CC[C@@H](Oc2cccc3cnc(Nc4ccc5nc[nH]c5c4)nc23)CC1` was 680
